Measured values drawn from patent US20220389009A1 for this set.

Target: CDK5/p25 (Homo sapiens, UniProt Q00535)
Sequence (Q00535 whole entry): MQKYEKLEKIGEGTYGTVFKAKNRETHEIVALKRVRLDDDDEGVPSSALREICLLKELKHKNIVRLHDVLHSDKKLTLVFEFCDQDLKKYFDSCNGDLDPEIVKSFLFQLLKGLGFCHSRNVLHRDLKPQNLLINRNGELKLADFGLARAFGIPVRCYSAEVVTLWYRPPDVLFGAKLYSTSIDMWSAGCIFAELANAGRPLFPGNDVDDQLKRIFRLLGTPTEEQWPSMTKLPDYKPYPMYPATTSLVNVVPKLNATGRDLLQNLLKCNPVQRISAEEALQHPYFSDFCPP
Sequence (Q15078 99-307 partner limits assumed): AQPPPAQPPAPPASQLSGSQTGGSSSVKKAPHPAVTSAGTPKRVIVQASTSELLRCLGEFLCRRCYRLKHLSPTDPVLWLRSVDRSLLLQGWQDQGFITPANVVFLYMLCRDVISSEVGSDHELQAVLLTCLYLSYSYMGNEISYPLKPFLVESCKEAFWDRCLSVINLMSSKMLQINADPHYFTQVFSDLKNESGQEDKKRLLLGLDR
Assay: CDK5 mobility shift assay (enzymatic activity of CDK5/p25)
Assay type: biochemical
Conditions: 0.154 nM CDK5/p25, FL peptide 29, 60 min at room temperature; read-out: CDK5 IC50
pIC50: −log10 of the molar value.

| COMPOUND | ASSAYED_SYSTEM | pIC50 |
| --- | --- | --- |
| CN1CCC(S(=O)(=O)c2ccc3cnc(Nc4ccccc4F)cc3n2)CC1 | CDK5/p25 (Homo sapiens, UniProt Q00535) | > 8.00 |
| CC(c1ccc2cnc(Nc3ccc(-n4ccc(C(=O)O)n4)cc3F)cc2n1)C1CCN(C)CC1 (stereo not shown) | CDK5/p25 (Homo sapiens, UniProt Q00535) | 7.00 to 8.00 |
| OCc1ccn(-c2ccc(Nc3cc4nc(SC5CCNCC5)ccc4cn3)c(F)c2)n1 | CDK5/p25 (Homo sapiens, UniProt Q00535) | > 8.00 |
| CN1CCC(S(=O)(=O)c2ccc3cnc(Nc4cccc(N5CCN(C)CC5)c4)cc3n2)CC1 | CDK5/p25 (Homo sapiens, UniProt Q00535) | > 8.00 |

====

Documented IC50 across a set of molecules
Biological target: CDK5/p25 (Homo sapiens, UniProt Q00535)
Assay: CDK5 mobility shift assay (enzymatic activity of CDK5/p25)
Type: biochemical
Details: 0.154 nM CDK5/p25, FL peptide 29, 60 min at room temperature; read-out: CDK5 IC50
PARAMETER_MEASURED: IC50

| MOLECULE | RESULT |
| --- | --- |
| Nc1cccc(C(=O)Nc2cc3nc(SC4CCNCC4)ccc3cn2)c1 | 100 to 1000 nM |
| CNC(=O)c1ccn(-c2ccc(Nc3cc4nc(S(=O)(=O)C5CCN(CC6COC6)CC5)ccc4cn3)c(F)c2)n1 | < 10 nM |
| CN1CCC(NS(=O)(=O)c2ccc3cnc(Nc4ccc(-n5ccc(CO)n5)cc4F)cc3n2)CC1 | 100 to 1000 nM |
| COc1cc(Nc2cc3nc(S(=O)(=O)C4CCN(C)CC4)ccc3cn2)ccc1NS(C)(=O)=O | < 10 nM |
| CN1CCC(S(=O)(=O)c2ccc3cnc(Nc4ccc(CN5CCOCC5)cc4)cc3n2)CC1 | < 10 nM |
| CN1CCC(S(=O)(=O)c2ccc3cnc(Nc4ccc(-n5cccn5)cc4F)cc3n2)CC1 | < 10 nM |
| CN1CCC(C(C)(O)c2ccc3cnc(Nc4ccc(-c5cccnc5)cc4F)cc3n2)CC1 (centres unmarked) [Compound 327] | 100 to 1000 nM |
| [O-][S@@+](c1ccc2cnc(Nc3ccc(-n4cccn4)cc3F)cc2n1)C1CCNCC1 | < 10 nM |

====

Biological target: CDK2/CycA2 (Homo sapiens)
Test: CDK2 mobility shift assay (enzymatic activity of CDK2/CycA2)
Type: biochemical
Conditions: 1.25 nM CDK2/CycA2, 37 μM ATP, FL Peptide 18, 120 min at room temperature; read-out: CDK2 IC50
pIC50: −log10 of the molar value.
Documented pIC50 across a set of compounds

| COMPOUND | pIC50 |
| --- | --- |
| CN1CCC(S(=O)(=O)c2ccc3cnc(Nc4cccc(N5CCOCC5)c4)cc3n2)CC1 | 6.00 to 7.00 |
| CN1CCC(S(=O)(=O)c2ccc3cnc(Nc4ccc(-c5ncon5)cc4F)cc3n2)CC1 | 6.00 to 7.00 |
| O=S(=O)(c1ccc2cnc(Nc3ccc(-n4ccc(CO)n4)cc3F)cc2n1)C1CCN(CC(O)CO)CC1 (stereo not shown) [Compound 253] | 6.00 to 7.00 |
| Cc1cccc(Nc2cc3nc(C(C)(O)C4CCN(C)CC4)ccc3cn2)c1 (stereo not shown) | 7.00 to 8.00 |
| CC(C)(O)c1ccn(-c2ccc(Nc3cc4nc(S(=O)(=O)C5CCN(CC6COC6)CC5)ccc4cn3)c(F)c2)n1 | < 6.00 |
| CN1CCC(S(=O)(=O)c2ccc3cnc(Nc4ccccc4)cc3n2)CC1 | 7.00 to 8.00 |
| CN1CCC([C@@](C)(O)c2ccc3cnc(Nc4ccc(-n5cc(C(=O)O)cn5)cc4F)cc3n2)CC1 | 7.00 to 8.00 |
| COc1ccc(-c2ccc(Nc3cc4nc(C(C)C5CCN(C)CC5)ccc4cn3)c(F)c2)cc1 (stereo not shown) [Compound 322] | 6.00 to 7.00 |
| CN1CCC(C(O)c2ccc3cnc(Nc4ccc(-n5ccc(CO)n5)cc4F)cc3n2)CC1 (single isomer, unassigned) [Compound 254] | 6.00 to 7.00 |
| CN1CCC(S(=O)(=O)c2ccc3cnc(Nc4ccc(-c5cccn(C)c5=O)cc4F)cc3n2)CC1 | < 6.00 |
| NC(=O)c1cccc(Nc2cc3nc(SC4CCNCC4)ccc3cn2)c1 | 7.00 to 8.00 |
| Fc1cc(-n2cccn2)ccc1Nc1cc2nc(CC3CCNCC3)ccc2cn1 | 6.00 to 7.00 |
| Fc1cc(-n2cccn2)ccc1Nc1cc2nc(C=C3CCNCC3)ccc2cn1 | < 6.00 |
| N[C@H]1CC[C@@H](Sc2ccc3cnc(Nc4ccc(-n5cccn5)cc4F)cc3n2)CC1 | 7.00 to 8.00 |
| CN1CCC(S(=O)(=O)c2ccc3cnc(Nc4ccccc4N4CCOCC4)cc3n2)CC1 | < 6.00 |
| COC(c1ccc2cnc(Nc3ccc(-n4cccn4)cc3F)cc2n1)C1CCN(C)CC1 (single isomer, unassigned) [Compound 387] | < 6.00 |

====

Molecular target: CDK5/p25 (Homo sapiens, UniProt Q00535)
Test: CDK5 mobility shift assay (enzymatic activity of CDK5/p25)
Type: biochemical
Conditions: 0.154 nM CDK5/p25, FL peptide 29, 60 min at room temperature; read-out: CDK5 IC50

| COMPOUND | IC50 |
| --- | --- |
| OCCN1CCC(C(O)c2ccc3cnc(Nc4ccc(-n5ccc(CO)n5)cc4F)cc3n2)CC1 (single isomer, unassigned) [Compound 252] | < 0.01 µM |
| CN1CCC(C(O)c2ccc3cnc(Nc4ccc(-n5cccn5)cc4F)cc3n2)CC1 (single isomer, unassigned) [Compound 176] | 0.1 to 1 µM |
| CN1CCC(C(C)(O)c2ccc3cnc(Nc4ccc(-c5cccnc5)cc4F)cc3n2)CC1 (stereo not shown) [Compound 329] | < 0.01 µM |
| Cc1ccc(F)c(Nc2cc3nc(C(O)(C4CCN(C)CC4)C(F)(F)F)ccc3cn2)c1 (stereo not shown) [Compound 390] | 0.1 to 1 µM |

====

Molecular target: CDK2/CycA2 (Homo sapiens, UniProt P24941)
Test: CDK2 mobility shift assay (enzymatic activity of CDK2/CycA2)
Format: biochemical
Conditions: 1.25 nM CDK2/CycA2, 37 μM ATP, FL Peptide 18, 120 min at room temperature; read-out: CDK2 IC50
pIC50: −log10 of the molar value.
Documented pIC50 across a set of molecules

| MOLECULE | pIC50 |
| --- | --- |
| CN1CCC(C(C)(O)c2ccc3cnc(Nc4ccc(-c5cncnc5)cc4F)cc3n2)CC1 (stereo not shown) | 7.00 to 8.00 |
| CN(C)[C@H]1CC[C@@H](N(CC(=O)O)c2ccc3cnc(Nc4ccc(-n5ccc(CO)n5)cc4F)cc3n2)CC1 | < 6.00 |
| COc1cc(-c2ccc(Nc3cc4nc(S(=O)(=O)C5CCN(CC6COC6)CC5)ccc4cn3)c(F)c2)ccn1 | < 6.00 |
| CN1CCC(C(C)(O)c2ccc3cnc(Nc4ccc(-n5ccc(C#N)n5)cc4F)cc3n2)CC1 (stereo not shown) | 6.00 to 7.00 |
| CN1CCC(C(C)(F)c2ccc3cnc(Nc4ccc(-n5cccn5)cc4F)cc3n2)CC1 (single isomer, unassigned) [Compound 359] | 7.00 to 8.00 |
| O=C(O)[C@H]1CNCC[C@@H]1Nc1ccc2cnc(Nc3ccc(-n4ccc(CO)n4)cc3F)cc2n1 | < 6.00 |
| CCc1ccc(F)c(Nc2cc3nc(S(=O)(=O)C4CCN(C)CC4)ccc3cn2)c1 | 6.00 to 7.00 |
| CN1CCC(S(=O)(=O)c2ccc3cnc(Nc4ccon4)cc3n2)CC1 | 6.00 to 7.00 |
| CN1CCC2(CC1)CC2c1ccc2cnc(Nc3ccc(-n4cccn4)cc3F)cc2n1 (stereo not shown) | < 6.00 |
| CC1CCN(c2ccc(Nc3cc4nc(S(=O)(=O)C5CCN(C)CC5)ccc4cn3)cc2)CC1 | 6.00 to 7.00 |
| NC(c1ccc2cnc(Nc3ccc(-n4cccn4)cc3F)cc2n1)C1CCNCC1 (stereo not shown) | 6.00 to 7.00 |
| CN1CCC(S(=O)(=O)c2ccc3cnc(Nc4ccc(N5CCNC(=O)C5)cc4)cc3n2)CC1 | 7.00 to 8.00 |
| CN1CCC(/C(=N/O)c2ccc3cnc(Nc4ccc(-n5cccn5)cc4F)cc3n2)CC1 | 6.00 to 7.00 |
| CN1CCC(C(C)(O)c2ccc3cnc(Nc4ccc(S(C)(=O)=O)cc4)cc3n2)CC1 (stereo not shown) | > 8.00 |
| CN1CCC(C(C)(O)c2ccc3cnc(Nc4ccc(-c5cccc(C#N)c5)cc4F)cc3n2)CC1 (stereo not shown) [Compound 335] | 7.00 to 8.00 |
| CN1CCC(S(=O)(=O)c2ccc3cnc(Nc4cccc(C#CC(C)(C)O)c4)cc3n2)CC1 | 7.00 to 8.00 |
| CN1CCC(NS(=O)(=O)c2ccc3cnc(Nc4ccc(-n5ccc(CO)n5)cc4F)cc3n2)C1 (stereo not shown) | 6.00 to 7.00 |
| Cc1ccccc1Nc1cc2nc(S(=O)(=O)C3CCN(C)CC3)ccc2cn1 | 6.00 to 7.00 |
| CN1CCC(C(C)(O)c2ccc3cnc(Nc4cccc(C(N)=O)c4)cc3n2)CC1 (stereo not shown) | > 8.00 |
| CCC(O)(c1ccc2cnc(Nc3ccc(-n4cccn4)cc3F)cc2n1)C1CCN(C)CC1 (stereo not shown) [Compound 389] | < 6.00 |
| CN1CCC(/C(=N\O)c2ccc3cnc(Nc4ccc(-n5cccn5)cc4F)cc3n2)CC1 | 7.00 to 8.00 |
| CN1CCC(S(=O)(=O)c2ccc3cnc(Nc4ccc(-c5cncnc5)cc4F)cc3n2)CC1 | 6.00 to 7.00 |
| CN1CCC(S(=O)(=O)c2ccc3cnc(Nc4ccc(-n5ccc(C(N)=O)n5)cc4F)cc3n2)CC1 | 6.00 to 7.00 |
| NC(=O)c1cccc(-c2ccc(Nc3cc4nc(S(=O)(=O)C5CCN(CC6COC6)CC5)ccc4cn3)c(F)c2)c1 | 6.00 to 7.00 |
| CN1CCC(C(O)c2ccc3cnc(Nc4ccc(-n5ccc(CO)n5)cc4F)cc3n2)CC1 (single isomer, unassigned) [Compound 247] | < 6.00 |
| CN1CCC(S(=O)(=O)c2ccc3cnc(Nc4cccc(N5CCNC5=O)c4)cc3n2)CC1 | 7.00 to 8.00 |
| CN1CCC(C(C)(O)c2ccc3cnc(Nc4ccc(-c5ccc(=O)n(C)c5)cc4F)cc3n2)CC1 (stereo not shown) [Compound 346] | < 6.00 |
| CN1CCC(S(=O)(=O)c2ccc3cnc(Nc4cccc(N5CCCC5=O)c4)cc3n2)CC1 | 6.00 to 7.00 |
| CN1CCC(S(=O)(=O)c2ccc3cnc(Nc4ccc5c(c4)COC5)cc3n2)CC1 | 7.00 to 8.00 |
| CN1CCC(S(=O)(=O)c2ccc3cnc(Nc4ccc(C(C)(C)C)cc4)cc3n2)CC1 | 7.00 to 8.00 |
| COc1cc(Nc2cc3nc(S(=O)(=O)C4CCN(C)CC4)ccc3cn2)ccc1NS(C)(=O)=O | 7.00 to 8.00 |
